Entries and their LD0 (maximum dose which did not cause any deaths over 8 days)
# Test system: mouse
# EXPERIMENT_SUMMARY: Acute toxicity, oral, mouse
# Type: in vivo
METRIC: LD0 (maximum dose which did not cause any deaths over 8 days)

CC(C)(C)NCC(O)COc1ccccc1C(O)c1cccc2[nH]ccc12 (single isomer, unassigned) [Example 8] :: > 200 mg/kg
CC(C)(C)NCC(O)COc1ccccc1C(=O)c1cccc2c1CC(=O)N2 (stereo not drawn) :: > 200 mg/kg
CC(C)(C)NCCCOc1ccccc1C(O)c1cccc2[nH]ccc12 (stereo not drawn) :: 100 mg/kg

###

# Test system: mouse
# EXPERIMENT_SUMMARY: Acute toxicity, oral, mouse
# Type: in vivo
METRIC: LD0 (maximum dose which did not cause any deaths over 8 days) (mg/kg)

C=C(c1ccccc1OCC(O)CNC(C)(C)C)c1cccc2[nH]ccc12 (racemic) [Example 22] :: 200
CC(C)(C)NCCCOc1ccccc1C(=O)c1cccc2[nH]ccc12.O=C(O)c1ccccc1 [Example 3] :: 100
